system: IKs channels (hKCNQ1/hKCNE1) (Homo sapiens, UniProt P51787)
test: IKs in HEK 293 cells stably expressing hKCNQ1/hKCNE1
stated conditions: HEK 293 cells, IKs.step, +40 mV; read-out: IC50 for inhibiting IKs
parameter measured: IC50 (µM)

[[record]]
molecule = "COc1ccc(-c2cc(=O)c3c(O)cc(O)cc3o2)cc1 [Acacetin, 5,7-dihydroxy-4′-methoxyflavone]"
system = "IKs channels (hKCNQ1/hKCNE1) (Homo sapiens, UniProt P51787)"
unit_spec = "µM"
recorded_number = 81.4


---

system: Kv1.5 (Homo sapiens)
Construct: expressed in transfected cells
Sequence (P22460 whole entry): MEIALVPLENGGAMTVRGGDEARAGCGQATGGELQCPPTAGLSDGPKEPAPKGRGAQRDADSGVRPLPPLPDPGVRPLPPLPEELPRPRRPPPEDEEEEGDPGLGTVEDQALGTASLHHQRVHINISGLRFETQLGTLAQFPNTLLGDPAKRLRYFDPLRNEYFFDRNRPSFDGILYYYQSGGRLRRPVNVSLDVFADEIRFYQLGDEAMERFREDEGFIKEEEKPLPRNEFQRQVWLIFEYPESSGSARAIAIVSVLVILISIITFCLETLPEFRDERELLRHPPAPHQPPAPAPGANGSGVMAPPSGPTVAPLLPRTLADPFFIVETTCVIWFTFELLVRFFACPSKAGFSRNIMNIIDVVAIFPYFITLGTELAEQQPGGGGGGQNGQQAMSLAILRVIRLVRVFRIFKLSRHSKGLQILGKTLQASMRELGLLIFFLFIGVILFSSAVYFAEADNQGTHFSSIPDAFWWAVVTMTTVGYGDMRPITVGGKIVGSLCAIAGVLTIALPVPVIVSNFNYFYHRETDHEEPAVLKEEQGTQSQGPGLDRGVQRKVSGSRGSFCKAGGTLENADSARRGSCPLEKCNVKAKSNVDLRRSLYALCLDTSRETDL
test: Kv1.5 channel block in stably expressing HEK 293 cells
Format: cell-based
stated conditions: comparative study, Table 3
parameter measured: effect on Kv1.5 compared with acacetin, in words

[[record]]
smiles_repr = "CCOc1cc(O)c2c(=O)cc(-c3ccc(OC)cc3)oc2c1"
result = "less effect"

[[record]]
smiles_repr = "COc1ccc(-c2cc(=O)c3cc(Cl)ccc3o2)cc1"
result = "less effect"

[[record]]
smiles_repr = "COc1ccc(-c2cc(=O)c3c(O)cc(OC)cc3o2)cc1"
result = "less effect"

[[record]]
smiles_repr = "COc1ccc(-c2cc(=O)c3cc(C)ccc3o2)cc1"
result = "less effect"

[[record]]
smiles_repr = "COc1ccc(-c2cc(=O)c3c(O)cc(OC(C)=O)cc3o2)cc1"
result = "less effect"

